Overview of recorded pEC50 for various compounds
Test system: HT-1080 cells
Assay: HT-1080 cell viability assay (ferroptosis induced by RSL3, Cell Titer-Glo)
Format: cell-based
Conditions: Homo sapiens, HT-1080, 20 h, ferroptosis inducer RSL3, 20 hours, ferroptosis inhibitory activity, Table 2
pEC50: −log10 of the molar value.

Compound	Tested on	pEC50
CC1CCN(c2ncc(NC3C4CC5CC3CC(C(N)=O)(C5)C4)cn2)CC1 (stereo not shown)	HT-1080 cells	7.00 to 10.00
NC1CCC(Nc2ccc(C3CCC(F)(F)CC3)cc2)CC1 (stereo not shown) [Compound 251A]	HT-1080 cells	7.00 to 10.00
CC1CN(c2ncc3cc(NC4CC5(CC(N)C5)C4)ccc3n2)CC(C)O1 (stereo not shown)	HT-1080 cells	7.00 to 10.00
CC(C)(CN)Nc1ccc(C(C)(C)C)cc1	HT-1080 cells	5.00 to 6.00
Cc1nc(N2CC(C)(C)OC(C)(C)C2)ccc1NC1CC2(CC(N)C2)C1 (stereo not shown)	HT-1080 cells	7.00 to 10.00
Cc1c(NC[C@H]2CC[C@H](N)CC2)ccc(N2CC(C)OC(C)C2)c1F (stereo partly shown)	HT-1080 cells	7.00 to 10.00
NCCOc1cc(NC2CCC(N)CC2)ccc1N1CCC(C(F)(F)F)CC1 (stereo not shown) [Compound 41A]	HT-1080 cells	6.00 to 7.00
CC(C)(C)c1ccc(N[C@H]2CC[C@@H](N)CC2)cc1	HT-1080 cells	6.00 to 7.00
CC(C)(C)c1ccc(NCCN2CCOCC2)cc1	HT-1080 cells	5.00 to 6.00
CC(C)(C)c1ccc(NC2CCCNC2)cc1 (stereo not shown)	HT-1080 cells	6.00 to 7.00
C[C@@H](O)[C@H](N)CNC1CCC(Nc2ccc(C(C)(C)C)cc2)CC1 (stereo partly shown)	HT-1080 cells	7.00 to 10.00
NC1CCC(Nc2ccc(N3CCC(C(F)(F)F)CC3)c(OCCO)c2)CC1 (stereo not shown)	HT-1080 cells	7.00 to 10.00
Cc1cc(N2CCC(C)(C)CC2)ccc1NC1CCC(N)CC1 (stereo not shown)	HT-1080 cells	7.00 to 10.00
